Reported JAK2/JAK1 is given for each of the following compounds.
System: human JAK1
Assay: In vitro JAK kinase assay (HTRF, phosphorylation of a biotinylated peptide), JAK1
Type: biochemical
Settings: ratio of IC50s, 1 mM ATP
Protocol: Compounds herein were tested for inhibitory activity of JAK targets according to the following in vitro assay described in Park et al., Analytical Biochemistry 1999, 269, 94-104. […] The phosphorylated peptide was detected by homogenous time resolved fluorescence (HTRF). […] Binding to the Europium labeled antibody took place for 40 minutes and HTRF signal was measured on a PHERA star plate reader (BMG, Cary, N.C.). […]

compound: N#CC[C@H]1CC[C@H](n2c(CO)nc3cnc4ccsc4c32)CO1
JAK2/JAK1: >10
--
compound: Cc1nc2cnc3ccsc3c2n1[C@H]1CC[C@H](CC#N)CC1
JAK2/JAK1: >7
--
compound: C[C@@H](O)c1nc2cnc3ccsc3c2n1[C@H]1CCCN(C(=O)CCC#N)C1
JAK2/JAK1: >10
--
compound: C[C@@H](O)c1nc2cnc3ccsc3c2n1C1CCNCC1F (single isomer, unassigned) [9 (2nd peak)]
JAK2/JAK1: >10
--
compound: N#CCc1nc2cnc3ccsc3c2n1[C@H]1CC[C@@H](CC#N)OC1
JAK2/JAK1: >10
--
compound: CC(F)c1nc2cnc3ccsc3c2n1[C@H]1CC[C@H](CC#N)OC1 (some centres unmarked)
JAK2/JAK1: >10
--
compound: Cc1nc2cnc3ccsc3n2c1-c1ccc(CC#N)cc1
JAK2/JAK1: >7

Ask: Any idea what JAK2/JAK1 was measured for `C[C@@H](O)c1nc2cnc3ccsc3c2n1[C@H]1CCCN(C(=O)CCCC#N)C1` ?
Reply: >10
